Source listed as patent US20050060764A1.

- Test system: rat RANKL mRNA
- assay_name: Antisense inhibition of rat RANKL mRNA levels in UMR-106 cells, quantitative real-time PCR (Table 3)
- Format: cell-based
- Set-up: concentration or dose not given beside the values
- recorded_conditions: averages from three experiments
Strand notation (5' to 3'): a small letter for the sugar, then the base; units joined by * are phosphorothioate-linked, units joined directly phosphodiester-linked; [ ] holds rarer units or linkages, { } end groups; capitals alone tell only the bases. e = 2'-O-(2-methoxyethyl) (MOE); [5mC] = 5-methylcytosine; d = 2'-deoxy (DNA)
measured_parameter: % INHIB (inhibition of rat RANKL mRNA levels)

286601 (antisense eT*e[5mC]*eA*e[5mC]*eG*dG*dA*dG*dT*d[5mC]*dT*d[5mC]*dA*dG*dA*eA*eT*eT*e[5mC]*eT) [compound 286601] ... 63%
286653 (eA*eA*eA*e[5mC]*e[5mC]*dA*dT*d[5mC]*dA*dT*dT*dT*d[5mC]*dT*d[5mC]*eT*eG*e[5mC]*eA*eA; antisense) [compound 286653] ... 58%
caggaacagagcgatgctgc (e[5mC]*eA*eG*eG*eA*dA*d[5mC]*dA*dG*dA*dG*d[5mC]*dG*dA*dT*eG*e[5mC]*eT*eG*e[5mC]; antisense) [ISIS 286590, 2′-MOE gapmer targeted to rat RANKL] ... at least 40%
agaggacagactgactttat (eA*eG*eA*eG*eG*dA*d[5mC]*dA*dG*dA*d[5mC]*dT*dG*dA*d[5mC]*eT*eT*eT*eA*eT; antisense) [ISIS 286611, 2′-MOE gapmer targeted to rat RANKL] ... at least 40%

Now for the substance whose % INHIB (inhibition of rat RANKL mRNA levels) we want.
Query string: Give the reported % INHIB (inhibition of rat RANKL mRNA levels) for tctgttaggatccatctgcg (eT*e[5mC]*eT*eG*eT*dT*dA*dG*dG*dA*dT*d[5mC]*d[5mC]*dA*dT*e[5mC]*eT*eG*e[5mC]*eG; antisense) [ISIS 286596, 2′-MOE gapmer targeted to rat RANKL] (system: rat RANKL mRNA).
Result string: at least 40%

----------
Exercise: for every item that follows, state its recorded % INHIB (inhibition of rat RANKL mRNA levels).
- System: rat RANKL mRNA
- assay_name: Antisense inhibition of rat RANKL mRNA levels in UMR-106 cells, quantitative real-time PCR (Table 3)
- Assay type: cell-based
- Set-up: concentration or dose not given beside the values
- recorded_conditions: averages from three experiments
Strand notation (5' to 3'): a small letter for the sugar, then the base; units joined by * are phosphorothioate-linked, units joined directly phosphodiester-linked; [ ] holds rarer units or linkages, { } end groups; capitals alone tell only the bases. e = 2'-O-(2-methoxyethyl) (MOE); [5mC] = 5-methylcytosine; d = 2'-deoxy (DNA)
Lab book: enter the figure in %, no units written.

Query string: Request the reported % INHIB (inhibition of rat RANKL mRNA levels) associated with 286629 (antisense eA*e[5mC]*e[5mC]*eA*eT*d[5mC]*dA*dG*d[5mC]*dT*dG*dA*dA*dG*dA*eT*eA*eG*eT*e[5mC]) [compound 286629]
Result string: 63

Query string: Fill in the blank: the reported % INHIB (inhibition of rat RANKL mRNA levels) of 286618 (antisense eA*e[5mC]*e[5mC]*e[5mC]*eT*dT*dA*dG*dT*dT*dT*dT*d[5mC]*d[5mC]*dG*eT*eT*eG*e[5mC]*eT) [compound 286618] is ____.
Result string: 57

Query string: What value of % INHIB (inhibition of rat RANKL mRNA levels) has been recorded for this entry: 286598 (antisense e[5mC]*eT*eT*e[5mC]*eT*dG*dA*dT*dA*dT*dT*d[5mC]*dT*dG*dT*eT*eA*eG*eG*eA) [compound 286598]
Result string: 6

Query string: Please give the measured % INHIB (inhibition of rat RANKL mRNA levels) for this substance: 286616 (antisense e[5mC]*eA*eT*eG*eT*dT*dA*dG*dA*dG*dA*dT*d[5mC]*dT*dT*eG*eG*e[5mC]*e[5mC]*e[5mC]) [compound 286616]
Result string: 31

Query string: Look up % INHIB (inhibition of rat RANKL mRNA levels) for this substance: 180807 (antisense eA*eG*e[5mC]*eA*eA*dA*dT*dG*dT*dT*dG*dG*d[5mC]*dG*dT*eA*e[5mC]*eA*eG*eG) [compound 180807]
Result string: 48

Query string: Please look up its % INHIB (inhibition of rat RANKL mRNA levels): 180802 (antisense eG*e[5mC]*eT*e[5mC]*eG*dA*dA*dA*dG*dT*dA*d[5mC]*dA*dG*dG*eA*eA*e[5mC]*eA*eG) [compound 180802]
Result string: 40

Query string: # query: % INHIB (inhibition of rat RANKL mRNA levels) of entry 286613 (antisense eG*eA*eT*e[5mC]*eA*dT*dG*dG*dT*dA*d[5mC]*d[5mC]*dA*dA*dG*eA*eG*eG*eA*e[5mC]) [compound 286613]
Result string: 39

Query string: # lookup: % INHIB (inhibition of rat RANKL mRNA levels) of 286619 (antisense eG*eG*eT*eT*eA*dA*d[5mC]*d[5mC]*d[5mC]*dT*dT*dA*dG*dT*dT*eT*eT*e[5mC]*e[5mC]*eG) [compound 286619]
Result string: 61

Query string: Need % INHIB (inhibition of rat RANKL mRNA levels) of 286650 (antisense eG*eT*eG*eG*e[5mC]*dA*d[5mC]*dA*dG*dG*d[5mC]*d[5mC]*d[5mC]*dA*dG*eG*eA*eG*eT*eT) [compound 286650] , thanks.
Result string: 53

Query string: Which value of % INHIB (inhibition of rat RANKL mRNA levels) has been reported for 286592 (antisense e[5mC]*eT*e[5mC]*eG*eA*dA*dA*dG*dT*dA*d[5mC]*dA*dG*dG*dA*eA*e[5mC]*eA*eG*eA) [compound 286592] in the records?
Result string: 16

Query string: Recorded % INHIB (inhibition of rat RANKL mRNA levels) for 286655 (eG*eA*eA*eA*eA*d[5mC]*d[5mC]*dT*dT*dA*d[5mC]*dA*d[5mC]*d[5mC]*dT*eG*eA*eA*eA*eT; antisense) [compound 286655] , please?
Result string: 0

Query string: Recorded % INHIB (inhibition of rat RANKL mRNA levels) for 286600 (antisense eT*eT*e[5mC]*eT*eG*dT*dA*dG*dA*dA*dG*d[5mC]*dA*dG*d[5mC]*eG*e[5mC]*eG*eT*eG) [compound 286600] , please?
Result string: 13

Query string: Field request: % INHIB (inhibition of rat RANKL mRNA levels) | item: 286589 (antisense eA*e[5mC]*eA*eG*eA*dG*d[5mC]*dG*dA*dT*dG*d[5mC]*dT*dG*d[5mC]*eA*eG*eA*e[5mC]*e[5mC]) [compound 286589]
Result string: 49

Query string: Could you share which % INHIB (inhibition of rat RANKL mRNA levels) value was measured for 286590 (antisense e[5mC]*eA*eG*eG*eA*dA*d[5mC]*dA*dG*dA*dG*d[5mC]*dG*dA*dT*eG*e[5mC]*eT*eG*e[5mC]) [compound 286590] ?
Result string: 47
